- target: human GnRH receptor (Homo sapiens, UniProt P30968)
- Sequence (P30968 whole entry): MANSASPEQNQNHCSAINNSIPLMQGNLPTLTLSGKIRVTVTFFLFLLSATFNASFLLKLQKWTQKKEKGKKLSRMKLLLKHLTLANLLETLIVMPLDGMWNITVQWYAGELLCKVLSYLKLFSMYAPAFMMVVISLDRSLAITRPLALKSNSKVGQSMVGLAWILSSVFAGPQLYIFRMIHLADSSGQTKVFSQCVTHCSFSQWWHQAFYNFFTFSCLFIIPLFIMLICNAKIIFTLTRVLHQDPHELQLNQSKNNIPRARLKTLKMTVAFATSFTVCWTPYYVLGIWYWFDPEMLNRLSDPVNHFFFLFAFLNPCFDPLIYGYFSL
- assaySummary: IP-One HTRF assay with buserelin (at EC80) stimulation
- conditionInfo: CHO cells stably expressing human GnRH receptor, read-out: Potency in IP-One HTRF assay, given as IC50
endpointName: IC50 (nM)
Give the number; nM is assumed, so skip it.

// solved cases for IC50 follow
compound: COc1cccc(S(=O)(=O)N2c3ccc(C(=O)Nc4cccc(S(=O)(=O)N(C)C)c4)cc3C3(CCS(=O)(=O)CC3)C2C2CC2)c1 (single isomer, unassigned) [Example 43.1]
target: human GnRH receptor (Homo sapiens, UniProt P30968)
IC50 (nM): 344

compound: CC1N(S(=O)(=O)c2ccc(F)cc2)c2ccc(C(=O)NCc3ncccc3C(F)(F)F)cc2C12CCOCC2 (single isomer, unassigned) [Example 3.1]
target: human GnRH receptor (Homo sapiens, UniProt P30968)
IC50 (nM): 226

Find the measured IC50: item COc1cccc(S(=O)(=O)N2c3ccc(C(=O)NCc4ncccc4C)cc3C3(CCS(=O)(=O)CC3)C2C2CC2)c1 (single isomer, unassigned) [Example 45.2] , target or system human GnRH receptor (Homo sapiens, UniProt P30968). 4460

Also need Cc1cncc(NC(=O)c2ccc3c(c2)C2(CCS(=O)(=O)CC2)C(C2CC2)N3S(=O)(=O)c2cccc(OC(F)(F)F)c2)c1 (centres unmarked) , thanks. 804

Another compound: CN1CCCC1=NS(=O)(=O)c1cccc(NC(=O)c2ccc3c(c2)C2(CCS(=O)(=O)CC2)C(C2CC2)N3S(=O)(=O)c2ccc(C(N)=O)cc2)c1 (centres unmarked) 225

Another: O=C(NC1CCOc2ccccc21)c1ccc2c(c1)C1(CCS(=O)(=O)CC1)C(C1CC1)N2S(=O)(=O)c1ccc(F)cc1 (single isomer, unassigned) [Example 33.1] 425

And the next one, N#Cc1ccc(S(=O)(=O)N2c3ccc(C(=O)Nc4cncc(Cl)c4)cc3C3(CCS(=O)(=O)CC3)C2C2CC2)cc1 (single isomer, unassigned) [Example 71.1] ? 49

Hey, just so you know, these numbers are from patent US20140357655A1.
